Data credit: the supplement of paper PMC10065799

Each entry below lists one item and its recorded phosphorylation enrichment value.
# Tested on: c-Abl (mouse)
# ASSAY_INFO: phosphorylation enrichment, bacterial display (enrichment ratio); higher = better substrate or ligand; peptides without Tyr show the background;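 further: 11-residue human phosphosite peptides and single-mutation variants displayed on the E. coli surface, counted by deep sequencing, each peptide's frequency after selection divided by its frequency in the unselected input library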;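 further: frequency after pTyr selection over input frequency; kinase dosed for 20-30% of maximal phosphorylation in three min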

| SEQUENCE_CONTENT | phosphorylation enrichment |
| --- | --- |
| NTADYYDLYGG [PTPN11_Y63_G60A] | 1.13 |
| ISRLKYPVSQQ [BTK_Y375] | 0.486 |
| YSMGCYEFSLG [HMGCL_Y198_I200F] | 0.864 |
| RGVVMYTSKDR [ZG16B_Y136_M133V] | 1.4 |
| RAILLYEFVGK [NATD1_Y45_V42I_YF] | 2.52 |
| VGTKRYMALEV [ACVRL1_Y375_P378L] | 0.709 |
| PGIRMYQVQYN [LRFN1_Y454] | 0.995 |
| IPQEEYTATGL | 0.924 |
| HGEAFYSEVKA [PAK5_Y182_P187A_YF] | 0.619 |
| GIKAAYEAELG [LMNA_Y81] | 0.704 |
| ILGRTHFVNHE [NEDD4_Y627_Y627H_YF] | 0.5 |
| GAAMLYYPSVS [GPR143_Y177] | 0.941 |
| KLPDAYEPLIL [G6PD_Y437_R439P] | 0.79 |
| TYEPNYGTVKR [RAPGEF6_Y1447_Q1452R] | 0.656 |
| SFLSFYTSHVQ [NEFL_Y443_P440L_YF] | 0.693 |
| SGAWSYNTSTE [SELE_Y24] | 0.55 |
| VVLVSYVPSSQ [SH2B1_Y624] | 0.614 |
| HITQVYGFYDE [PPP2CA_Y127_Q122H] | 1.58 |
| LRNIDYYRLDG [ATRX_Y2083] | 0.815 |
| DPGVSYHTREE [PDHA1_Y301_R302H] | 0.399 |
| LFVDVYGPSVP [NUBPL_Y109_D105Y_YF] | 0.717 |
| TVSTGYTQPQP [SARG_Y259_R258G] | 0.511 |
| PMDTFYDSTRG [DYNC2H1_Y2231_YF] | 0.582 |
| VNFGAYINFFK [GLB1_Y488_D491Y_YF] | 1.49 |
| DTSKMYIPHTD [EXPH5_Y782] | 0.549 |
| ADRSCYDLSCR [GARS1_Y467_H472R] | 0.847 |
| QGIPRYHSQSP [FOXF1_Y331] | 1.4 |
| LSAPCYLNRIS [HEXA_Y421_W420C] | 0.631 |
| EIHTQYEAMAS [GFAP_Y242_R239H] | 0.42 |

###

Reported phosphorylation enrichment values are given for each entry in this list.
# Test system: AncSZ
# ASSAY_INFO: phosphorylation enrichment, bacterial display (enrichment ratio); higher = better substrate or ligand; peptides without Tyr show the background
RECORDED_ENDPOINT: phosphorylation enrichment

| SEQUENCE_CONTENT | RECORDED_ENDPOINT | TEST_RESULT |
| --- | --- | --- |
| HFGCVYHGTLL [MET_Y1093] | phosphorylation enrichment | 1.8 |
| NVDGKYSYLKV [GRM3_Y478_G475D] | phosphorylation enrichment | 0.705 |
| DLDLTSIYPNI [PTEN_Y27_Y27S] | phosphorylation enrichment | 0.871 |
| KQRKEYMHRRQ [IQGAP2_Y710] | phosphorylation enrichment | 0.696 |
| LRVHSYKSMQH [DRC7_Y516_P521H] | phosphorylation enrichment | 1.4 |
| DGMADCSDPSY [CDC5L_Y459_Y459C] | phosphorylation enrichment | 1.12 |
| ESDGAYIQRMQ [CCDC137_Y125_H127Q] | phosphorylation enrichment | 0.687 |
| SHLSSYTTHPQ [NIPBL_Y195_P192L] | phosphorylation enrichment | 0.569 |
| DPGVSYHTREE [PDHA1_Y301_R302H] | phosphorylation enrichment | 0.677 |
| YQLENYCNGGG [INS_Y108] | phosphorylation enrichment | 0.768 |
| KGFCGYSFDDI [TMEM230_Y110_R108C_YF] | phosphorylation enrichment | 1.18 |
| DSGKLYALDVL [INO80_Y1104] | phosphorylation enrichment | 0.921 |
| LRNIDYYRLDG [ATRX_Y2083] | phosphorylation enrichment | 1.3 |
| HNVPIYEGYGL [ACTA1_Y168_A172G] | phosphorylation enrichment | 1.52 |
| LERFIYNREEL [HLA-DPB1_Y59_F64L_YF] | phosphorylation enrichment | 1.5 |
| TYEPNYGTVKR [RAPGEF6_Y1447_Q1452R] | phosphorylation enrichment | 0.567 |
| VGTKRYMAPEV [ACVRL1_Y375] | phosphorylation enrichment | 0.611 |
| QEITTYRRLLE [KRT14_Y415_A413T] | phosphorylation enrichment | 1.03 |
| PIPAAYNRFDQ [CDC73_Y290_YF] | phosphorylation enrichment | 0.513 |
| KKKKQYKDKFL [CASK_Y708_YF] | phosphorylation enrichment | 0.893 |
| LFSINYLHFGE [KDM4C_Y201_YF] | phosphorylation enrichment | 1.35 |
| SVDRDYVLKSA [HTATIP2_Y111_R106S] | phosphorylation enrichment | 0.66 |
| VTVLDYDKTGK [SYT1_Y365_I368T] | phosphorylation enrichment | 0.591 |
| DPHKIFEFVNS [IRF3_Y107_Y107F] | phosphorylation enrichment | 0.791 |
| GIFKDYFRFNF [PLA2G2D_Y85_S80G_YF] | phosphorylation enrichment | 1.16 |
| FGPPQYNMQFS [ERBB2IP_Y977_I979M_YF] | phosphorylation enrichment | 0.64 |
| TFRPPYYHRNC [HGD_Y333] | phosphorylation enrichment | 0.721 |
| EVVGRYSVHYA [MLH1_Y183_N187Y] | phosphorylation enrichment | 0.751 |
